Provenance of the data: the Human Domainome abundance scans (Beltran et al. 2025)

B1: Myocardin-related transcription factor A, residues 341 to 383; numbered along this chain, Q969V6 (parent)
chain: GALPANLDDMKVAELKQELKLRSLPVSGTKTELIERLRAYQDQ

# Variants of: B1
# Assay Name: abundance fitness (aPCA) (normalised: wild type 0, dead -1); higher = more abundant; growth selection in yeast, the domain comes from the species named
# Measurement Parameters: Homo sapiens
Kindly state abundance fitness for each of the entries shown.
Give only the figure.

For the variant D42C , report abundance fitness.
0.045

Look up abundance fitness of T31L and report it.
-0.145

Specify reported abundance fitness for the variant shown: Q41Y
-0.307

Identify measured abundance fitness associated with S27C
-0.201

Return abundance fitness (reported value) for this variant: V26Q
0.155

Give abundance fitness for the following variant: T31M
-0.089

Quickly give me recorded abundance fitness for R38C
-0.301

Consider the variant R22S and give its recorded abundance fitness.
-0.561

Fill in abundance fitness for record T29D
-0.147

Query abundance fitness for D42T
0.037

Supply abundance fitness value. Item: L21N
-0.08

Tell us which abundance fitness value is on record for V26S
-0.035

Supply measured abundance fitness of E35W in your reply.
-0.19

Return abundance fitness (reported value) for this variant: S23Y
0.038

Return the recorded abundance fitness value; entry: S27E
0.043

Provide only the value of recorded abundance fitness for Q41M
0.107

Input T29W , output reported abundance fitness.
-0.601

Supply reported abundance fitness belonging to this variant: L24R
-0.436

Please look at this variant and report its abundance fitness: Y40L
-0.062

Supply abundance fitness value. Item: D42S
-0.017

Please give measured abundance fitness of the following entry: S23D
0.073

Answer with reported abundance fitness of K20V
-0.041

Item R38Q : provide abundance fitness
-0.24

Determine its reported abundance fitness: E35Q
0.398

Supply recorded abundance fitness for R36I here.
-0.728

Output measured abundance fitness for this item: T29Y
-0.44

Tell me measured abundance fitness for L21S please.
-0.089

Supply reported abundance fitness belonging to this variant: I34M
-0.144

Find the measured abundance fitness of I34T and report it.
-0.151

Name the recorded abundance fitness of the variant listed here: L21V
-0.004

Could you please provide reported abundance fitness for L37M ? Thanks!
-0.165

Give the reported value of abundance fitness for this record: S27A
0.181

Write down abundance fitness measured for item R36N
-0.356

Please give the documented abundance fitness of R22A
-0.099

Assign abundance fitness to the following record: G28T
-1.56

Please look at this variant and report its abundance fitness: L33M
0.046

Let me know recorded abundance fitness for S23F , thanks.
-0.205

Annotate the variant A39Q with its measured abundance fitness.
0.205

Tell me measured abundance fitness for V26C please.
-0.223

For Y40G , write its abundance fitness.
0.202

Please indicate abundance fitness recorded for I34Q
0.116

// fetch abundance fitness given entry R38V
-0.152

Give abundance fitness for the following variant: P25A
-0.263

Report measured abundance fitness; entry is Y40N
0.127

# return recorded abundance fitness for input I34W
-0.363

Give the measured abundance fitness for E32R
-0.319
